Listed next: entries and their corresponding Phage binding ELISA signal, Anti-PSMA Fab.
- MEASURED_ON: T1, PSMA Fab (biotinylated (site not stated))
- T1 construct: also called Anti-PSMA Fab; 006 PSMA Fab
- METHOD_NOTES: clonal phage ELISA; biotinylated PSMA Fab on neutravidin plate, wells pre-incubated with PSMA antigen as competitor, anti-M13-HRP detection
Where no end group is shown, it is not given here.

Give Phage binding ELISA signal, Anti-PSMA Fab for EHKWCIPDWMCWED [Phage-2675]
0.0562

Give Phage binding ELISA signal, Anti-PSMA Fab for SGNWCTPSWMCTGF [Phage-2677]
0.062

Give Phage binding ELISA signal, Anti-PSMA Fab for NVIRCEPMWMCYPS (cysteine pairing not given here; also: displayed on bacteriophage as fusion to pIII) [Phage-2678]
0.0918

Give Phage binding ELISA signal, Anti-PSMA Fab for VTNWCIPEWMCNGN [Phage-2667]
0.0615

Give Phage binding ELISA signal, Anti-PSMA Fab for AGKLCIPNWMCEEQ [Phage-2670]
0.0913

Give Phage binding ELISA signal, Anti-PSMA Fab for LDMLCIPAWMCEPR [Phage-2674]
0.0925
